# System name: PD-1/PD-L1 (Homo sapiens, UniProt Q9NZQ7)
# Sequence (Q9NZQ7 19-238 limits assumed): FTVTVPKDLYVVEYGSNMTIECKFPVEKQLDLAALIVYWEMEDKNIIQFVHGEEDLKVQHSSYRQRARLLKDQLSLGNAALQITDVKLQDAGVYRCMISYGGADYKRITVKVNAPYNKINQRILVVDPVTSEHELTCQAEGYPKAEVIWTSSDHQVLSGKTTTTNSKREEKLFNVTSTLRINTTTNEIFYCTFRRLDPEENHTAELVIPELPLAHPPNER
# Test protocol: PD-1/PD-L1 biochemical protein-protein interaction assay (ALPHA)
# Format: binding
# Measurement setup: 0.3 nM His tagged PD-L1, 2.5 nM biotinylated Fc-PD-1, 60 minutes at 25° C., read-out: IC50 PD-L1-PD-1 Alpha IC50-mono PD-L1-fcP-D1
Experimental readout: log10 IC50 (log10 of the value in nM)

>  <Compound>
O=C1CC[C@@H](CNCc2ccc(-c3cccc(-c4cccc(-c5ccc(CNC[C@@H]6CCC(=O)N6)c(N6CCOCC6)c5)c4Cl)c3Cl)cc2N2CCOCC2)N1 [Example 626]

>  <Test value>
0.49

$$$$
>  <Compound>
Cc1c(COc2ccc(CNCCO)cc2C(F)(F)F)cccc1-c1cccc(COc2ccc(CNCCO)cc2C(F)(F)F)c1C [Example 223]

>  <Test value>
1.54

$$$$
>  <Compound>
Cc1c(COc2cc(OCc3cncc(C#N)c3)c(CNC[C@@H](O)CC(=O)O)cc2Cl)cccc1-c1cccc(-c2ccc(CNC[C@@H](O)CC(=O)O)cc2)c1C [Example 384]

>  <Test value>
-0.95

$$$$
>  <Compound>
COc1nc(-c2cccc(-c3cccc4c3CC[C@@H]4Oc3nc(OC)c(CN4CCCC(C)(C(=O)O)C4)cc3Cl)c2Cl)ccc1CNC[C@@H]1CCC(=O)N1 (some centres unmarked) [Example 761]

>  <Test value>
-1.19

$$$$
>  <Compound>
Cc1c(COc2cc(OCc3cncc(C#N)c3)c(CNC[C@@H](O)CC(=O)O)cc2Cl)cccc1-c1cccc(-c2cn(CCCNC[C@@H](O)CC(=O)O)nn2)c1C [Example 387]

>  <Test value>
-1.29

$$$$
>  <Compound>
COc1nc(O[C@H]2CCc3c(-c4cccc(-c5ccc(C6=NCCN6)c(OC)n5)c4Cl)cccc32)c(Br)cc1CN[C@@](C)(CO)C(=O)O [Example 789]

>  <Test value>
-1.19

$$$$
>  <Compound>
OCCNCc1cc(Cl)c2nc(-c3cccc(-c4cccc(-c5nc6c(Cl)cc(CNCCO)cn6n5)c4Cl)c3Cl)nn2c1 [Example 635]

>  <Test value>
-1.00

$$$$
>  <Compound>
Cc1c(COc2cc(OCc3cncc(C#N)c3)c(CNC(C)(CO)C(=O)O)cc2Cl)cccc1-c1cccc(-c2ccc(CN3CCC4(CNC(=O)C4)C3)cc2)c1C (centres unmarked) [Example 444]

>  <Test value>
-1.19

$$$$
>  <Compound>
COc1nc(OCc2cccc(-c3cccc(COc4nc(OC)c(CN5CC[C@H]5C(=O)O)cc4Br)c3C)c2C)c(Br)cc1CN1CC[C@H]1C(=O)O [Example 59]

>  <Test value>
-1.00

$$$$
>  <Compound>
Cc1c(COc2nc(OCc3cncc(C#N)c3)c(CNC[C@@H](O)CC(=O)O)cc2Cl)cccc1-c1cccc(COc2nc(OCc3cncc(C#N)c3)c(CNC[C@@H](O)CC(=O)O)cc2Cl)c1C [Example 34]

>  <Test value>
-0.40

$$$$
>  <Compound>
Cc1c(COc2ccc(CNC[C@@H](O)CC(=O)O)c(OCc3cncc(C#N)c3)n2)cccc1-c1cccc(COc2ccc(CNC[C@@H](O)CC(=O)O)c(=O)n2Cc2cncc(C#N)c2)c1C [Example 251]

>  <Test value>
0.30

$$$$
